- System: pooled human IgG (human IgG1,2,3 and 4)
Enzyme Activity Endpoint Assay (purified): scIgG for assorted proteins
Supply the numeric figure in ng/µL, leaving out any unit text.

Some proteins with known Enzyme Activity Endpoint Assay (purified): scIgG results, for comparison:
PRT-328 (protein) MTITSVWTKGVTPPTPEDFRKNNEDVLHAPYVANQGWYDITKTFDGKDNLLCGAATAGNMLHWWFDQNKEEIERYLKKHPEKQKIIFNNQELFDVKAAIDTKDSQTNSKLFNYFRDKAFPGLSARQLGVFPDLVLDMFINGYYLNLGKTQSTDVNRPYQDKDKRGGIFDAVFTRGVQTTLLTARHDLKNKGLNEISDLIKQELTEGKALALSHTYANVRINHVINLWGADFDAEGNLIAIYVTDSDANASIGMKKYFVGRNANGKVAISAKKIEGDNIGAQVLGLFTLSTGQDIWQKLS : 0
PRT-345 (protein) MTITSVWTKGVTPPTPEDFRENNEDVLHAPYLANQGWYDITKAFDGKDNLLCGAATAGNMLHWWFDQNKEEIERYLKKHPEKQKIIFNNQELFDVKAAIDTKDSQTNSKLFDYFRDKAFPNLSARQLGVMPDLVLDMFINGYYLNLGKTQSTDVNRPYQDKDKRGGIFDAVFTRGDQTTLLTARHDLKNKGLNEISDLIKQELTEGKALALSHTYANVSINHVINLWGADFDAEGELEAIYVTDSDANPSIGMKKYFVGRNAHGKVAISAKKIEGDNIGAQVLGLFTLSTGQDIWQKLS : 772
PRT-364 (protein) MSQTEDSESLQRLRDIEDFQAEKKKQNVVYTKWLDGVDVKDHDFRKIVDGNEAYYATPLLNGRGFYDINKDFNRDSDKCAAAVAANMFHYWLDRNRDNVDRFLRQNPEKHGIIELPDGQLKLSDFLNTYESDDGYRDKSKLFDFISENFNGPVWTDKLLDNYINGYAYNYKYGRTIEDPTKNTSKINFFKEVFNEKILTNNHSIRNQNELSVLLSEALYTGKAIGLSYGPAGLRHSLGHIISVWGADLDADGNVVAIYVTDSDDKKLTIGDERVGLKRYKISTDDEGRLRLTAYEETHNTGGQIRGLWTLDTGKQAWADYFDKTEQTGTDQAEQ : 334

// next item, Enzyme Activity Endpoint Assay (purified): scIgG requested
Problem: Consider the protein PRT-689 (protein) MQITSVWTKGVTPLTMDQFTNNNEDVIHAPYKPGQGWYDITKTFDGKDNLLCGAATAGNMLHWWFDQNKEEIENYLKKHPEKQKIIFNNQKLFDLRKAINTKDSQTNSALFNYFRDKAFPNLSARQLGVMPDLVLDMFINGYYLNVFKTQSTDVNREYQTKDKRGGIFDDVFGRGDQTTLLTARHDLKNGGLNDISQIIKQELSSGKALALSHTYANVSISHVINLWGADFNEEGNLEAIYVTDSDANASIGMKKYYVGKNAHGKVAISAKKIEGENIGAQVLGLFTLSSGKEIWQKLSLEHHHHHH and give its measured Enzyme Activity Endpoint Assay (purified): scIgG.
Solution: 174
